These entries and their values trace back to PubChem BioAssay AID1195.

system: human maximum recommended daily dose, FDA database; experiment: DSSTox (FDAMDD) FDA Maximum (Recommended) Daily Dose Database; conditions: TherapeuticCategory: anticholinergic; smooth muscle relaxant; active compounds read low
PROPERTY_LABEL: maximum recommended daily dose (mmol/kg-bw/day)

>>> result("CCN(CC)CCSC(=O)C(c1ccccc1)c1ccccc1")
0.0153

====

system: human maximum recommended daily dose, FDA database; assay: DSSTox (FDAMDD) FDA Maximum (Recommended) Daily Dose Database; settings: TherapeuticCategory: gastrointestinal; active compounds read low
PROPERTY_LABEL: maximum recommended daily dose (mmol/kg-bw/day)

>>> result("NCCc1cnc[nH]1")
0.00013
